All values here come from patent US20050215503.

Target: HIF-1 (HIF-1alpha/HIF-1beta (ARNT) heterodimer) (Homo sapiens?, UniProt Q16665;P27540 Q16665:1-826,P27540:2-789)
Sequence (Q16665 whole entry, chain 1 of 2): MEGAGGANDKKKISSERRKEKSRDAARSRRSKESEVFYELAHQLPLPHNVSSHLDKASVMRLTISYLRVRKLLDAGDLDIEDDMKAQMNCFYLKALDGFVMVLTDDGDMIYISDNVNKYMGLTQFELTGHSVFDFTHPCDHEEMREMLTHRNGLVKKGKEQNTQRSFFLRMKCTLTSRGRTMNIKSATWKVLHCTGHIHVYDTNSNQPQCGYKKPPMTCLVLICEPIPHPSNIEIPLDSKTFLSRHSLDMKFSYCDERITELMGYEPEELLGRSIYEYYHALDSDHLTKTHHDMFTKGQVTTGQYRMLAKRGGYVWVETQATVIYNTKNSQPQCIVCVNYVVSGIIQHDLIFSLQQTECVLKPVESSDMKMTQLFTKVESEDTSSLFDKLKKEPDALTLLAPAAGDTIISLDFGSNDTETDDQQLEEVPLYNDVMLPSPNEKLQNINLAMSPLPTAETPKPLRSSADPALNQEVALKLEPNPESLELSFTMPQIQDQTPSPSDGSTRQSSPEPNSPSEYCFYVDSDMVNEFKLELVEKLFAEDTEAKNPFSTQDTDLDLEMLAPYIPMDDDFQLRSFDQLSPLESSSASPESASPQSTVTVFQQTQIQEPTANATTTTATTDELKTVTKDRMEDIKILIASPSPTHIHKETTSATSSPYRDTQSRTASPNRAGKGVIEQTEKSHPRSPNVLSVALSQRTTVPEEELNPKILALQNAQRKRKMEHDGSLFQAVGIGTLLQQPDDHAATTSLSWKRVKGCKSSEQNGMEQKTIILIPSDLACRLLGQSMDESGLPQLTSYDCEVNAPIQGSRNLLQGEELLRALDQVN
Sequence (P27540 2-789, chain 2 of 2): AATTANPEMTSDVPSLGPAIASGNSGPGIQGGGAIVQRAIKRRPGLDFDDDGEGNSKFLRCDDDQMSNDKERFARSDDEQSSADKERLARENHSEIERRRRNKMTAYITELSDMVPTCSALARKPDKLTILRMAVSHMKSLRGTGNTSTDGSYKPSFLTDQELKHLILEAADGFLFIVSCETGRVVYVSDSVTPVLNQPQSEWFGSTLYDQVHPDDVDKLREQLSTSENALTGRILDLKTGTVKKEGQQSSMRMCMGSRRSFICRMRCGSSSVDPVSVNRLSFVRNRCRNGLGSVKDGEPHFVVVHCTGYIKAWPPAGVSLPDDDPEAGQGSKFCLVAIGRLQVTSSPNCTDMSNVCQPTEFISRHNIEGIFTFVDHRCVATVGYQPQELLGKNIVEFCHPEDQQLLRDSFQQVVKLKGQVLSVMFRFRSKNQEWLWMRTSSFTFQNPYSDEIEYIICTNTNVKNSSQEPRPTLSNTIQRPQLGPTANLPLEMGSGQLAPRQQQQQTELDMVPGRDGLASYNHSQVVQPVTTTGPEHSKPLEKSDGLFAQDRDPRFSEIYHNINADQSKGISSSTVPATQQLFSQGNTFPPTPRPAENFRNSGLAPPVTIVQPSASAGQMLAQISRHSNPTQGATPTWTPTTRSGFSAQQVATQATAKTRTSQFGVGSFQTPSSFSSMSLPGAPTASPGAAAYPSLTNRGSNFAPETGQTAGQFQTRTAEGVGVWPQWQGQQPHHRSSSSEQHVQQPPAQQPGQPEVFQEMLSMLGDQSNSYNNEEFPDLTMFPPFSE
Assay: competition; TransAM
Details: protein: extract; tags: none (endogenous, nuclear extract)
I'd be grateful if you could share measured binding signal for these entries.
Put down the number, then write its unit next to it.

Reference set, count: 2
binder="decoy 829/830 (dsDNA) DNA 1: AGGAGACGTGCTGCCT DNA 2: AGGCAGCACGTCTCCT" measurement_name="binding signal" result="5.12 ratio"
binder="decoy 831/832 (dsDNA) DNA 1: TCCAATACGTGCAGTACT DNA 2: AGTACTGCACGTATTGGA" measurement_name="binding signal" result="3.36 ratio"

Proceeding to the next binder to report its binding signal.
Qu. Dear colleague, please send me the reported binding signal for decoy 993 (dsDNA) DNA 1: CCAGCGTACGTGCCACAGG DNA 2: CCTGTGGCACGTACGCTGG when you can.
Ans. 0.93 ratio
